- System: MDA-MB-435 melanoma
- assay.details: NCI-60 one-dose screen, 48 h
- condition.context: 10 µM unless noted
Compounds without any hit were thinned out: in the full panel of roughly 83,000, 20% have a hit. Activity calls are given as the source filed them. The calls were made as follows: active = growth percent below 10; inactive = the rest.
Outcome codes: class 1 = active, class 0 = inactive

> print(dat)
                                    compound  qualitative.label
 1  Cc1ccc(C23CCC(=O)N2CCc2cncn23)cc1 (stereo not given)            class 0
 2  CCN(CC)CCCNC(=O)c1c2c(n3ccccc13)C(=O)c1ncccc1C2=O            class 1
 3  O=C(COc1ccc(/C=C2\Oc3ccccc3C2=O)cc1)Nc1nccs1            class 0
 4  CC1=NN(c2cccc(Cl)c2)C(=O)/C1=C\C=C\c1ccccc1            class 0
 5  COc1ccc(C2CC(=O)Oc3c(OC)c4c(c(OC)c32)OCO4)cc1 (stereo not given)            class 0
 6  Nc1ncc(-c2ccc3ncnc(N4CCc5cc(F)c(Cl)cc54)c3c2)cc1C=O            class 1
 7  Nc1ncc(-c2ccc3ncnc(N4CCc5cc(F)c(Cl)cc54)c3c2)cc1C(F)(F)F            class 1
 8  CN(Cc1ccccc1)c1nc(Cl)c(C2CC(c3ccc(Cl)cc3)=NN2c2cc(Cl)cc(Cl)c2)s1 (stereo not given)            class 0
 9  CCOC(=O)CC1CSC(N/N=C/c2ccc(O)cc2)=N1 (stereo not given)            class 0
10  Cc1cc2c(c(C)n1)CN(C(=O)Nc1nc(-c3cncs3)ccc1N)C2            class 0

###

- System: SNB-75 CNS
- assay.details: NCI-60 one-dose screen, 48 h (100 = growth as untreated, 0 = no growth, -100 = all killed)
- condition.context: 10 µM unless noted
This is part of a sample that, as a whole, favours compounds with a hit. Of some 83,000 tested, about 20% had one in any assay.
# if value of growth reaches 90%, tag MET; if it stays below, tag NOT MET

> print(dat)
                           structure.string  qualitative.label
1  O=C(Nc1ncc(Cc2ccc(Cl)cc2)s1)c1ccc2c(c1)OCCO2            NOT MET
2  CC(C)(C)CC(C)(C)Nc1c(-c2c(O)c3ccccc3oc2=O)nc2sccn12                MET
3  Cc1ccc2nc(/C=C/c3ccc(N(C)C)cc3)cc(C)c2c1            NOT MET
4    COc1nc2ccccc2cc1/C=[N+](\[O-])c1ccccc1            NOT MET

###

- Tested on: K-562 leukemia
- assay.details: NCI-60 one-dose screen, 48 h (100 = growth as untreated, 0 = no growth, -100 = all killed)
- condition.context: 10 µM unless noted
- Procedure: Cells are grown in 96 well plates and exposed to the test compound for 48 hours. Compounds are tested at a single concentration, which is 10^-5 M for most compounds. The reported endpoint is percent growth (GI% or GIPRCNT), where numbers from 0 - 100% represent growth inhibition, and numbers from -100% - 0 represent cell death. For example, a value of 40 represents 60% growth inhibition. A value of 0 means no net growth occurred over the course of the experiment. […]
About 83,000 compounds went through this panel and 20% of them were active in at least one assay; those are over-represented in the sample as a whole. Calls of active or inactive are those of the source. How the source made its calls: active means growth percent below 10; inactive means the rest.
property.name: growth

> print(dat)
                                    compound                 meas.value
 1  N#Cc1c(-c2ccc(F)cc2)cc(-c2cccc(Cl)c2)[nH]c1=O           56.2% (inactive)
 2  COc1ccc2c(c1)C(c1c[nH]c3ccccc13)(c1c[nH]c3ccccc13)CCO2           29.5% (inactive)
 3  Nc1ncc(-c2ccc3ncnc(N4CCc5ccc(Cl)cc54)c3c2)cn1           10.5% (inactive)
 4  COc1ccc(Cn2cc(C(=O)N=Nc3c(O)[nH]c4ccc(Br)cc34)nn2)cc1           88.1% (inactive)
 5  CCN(CC)CCCC(Nc1c2ccc(Cl)cc2nc2ccc(OC)cc12)c1ccncc1 (stereo not given)           32.6% (inactive)
 6  COc1ccc(C(=O)/C=C/c2ccc(C)cc2)cc1S(N)(=O)=O             3.04% (active)
 7  O=C(Nc1ncc(Cc2ccccc2)s1)c1ccc2c(c1)OCCO2             8.32% (active)
 8  COc1cc(/C=C/C(=O)c2ccc(-n3cc(CN4CCN(c5cc6c(cc5F)c(=O)c(C(=O)O)cn6C5CC5)CC4)nn3)cc2)cc(OC)c1OC           60.7% (inactive)
 9  COc1cc(OCc2cccc(-c3ccccc3)c2C)cc(OC)c1CN1CCCCC1C(=O)NCCOCCOCCN (stereo not given)            -19.8% (active)
10          COc1cccc(/C=C2\CCc3ccccc3C2=O)c1           35.1% (inactive)
11  Cc1c(C)c2c(c(C)c1OC(=O)CCC(=O)[O-])CCC(C)(CCCCCCCCCCC[P+](c1ccccc1)(c1ccccc1)c1ccccc1)O2 (stereo not given)             6.14% (active)
12  CC(C)n1cc(C2=C(c3cccc4ccccc34)C(=O)NC2=O)c2cc(Br)ccc21           34.8% (inactive)
13  N#CC1=C(N)Oc2c(ccc3cccnc23)C1c1ccccc1 (stereo not given)           17.2% (inactive)
14                    O=C(O)CCCN1C(=O)CSC1=S            103% (inactive)
15  C#CCOc1ccc(C2=NN(CCCC)C3N=C(Cl)c4ncn(CCCC)c4N23)cc1OCC#C (stereo not given)           71.2% (inactive)
16  COc1ccc(NC(=O)c2sc3nc(C)c(C(=O)c4ccccc4)cc3c2N)cc1           94.2% (inactive)
17             CCN(CC)CCCNc1cc(OC)cc2cccnc12           81.4% (inactive)
18  O=C(Nc1cccc(Cl)c1)Oc1c(Cl)c(Cl)c(Cl)c(Cl)c1Cl           98.6% (inactive)
19  Nc1nc(N)c2c(n1)NC(c1cccc(Nc3ccnc4cc(C(F)(F)F)ccc34)c1)CC(c1ccc(Cl)cc1)=N2 (stereo not given)           10.5% (inactive)
20  CCOC(=O)c1c(C)c2c(n1Cc1ccccc1)CSc1cc(C#N)c(=O)[nH]c1-2  75.5% [100 µM] (inactive)
